System: NCI-H226 lung
Test: NCI-60 one-dose screen, 48 h
Details: 10 µM unless noted
Compounds without any hit were thinned out: in the full panel of roughly 83,000, 20% have a hit. Active and inactive are the calls of the source. Rule for the calls: active = growth percent below 10; inactive = the rest.
Possible outcomes: active, inactive

{"columns": ["Molecular String", "Classification"],
 "data": [
  ["CNC(=O)c1cc(Oc2ccc3nc(NC(=O)c4cc(N5CCOCC5)cc(C(F)(F)F)c4)sc3c2)ccn1", "inactive"],
  ["COc1ccc2c(c1)c(CC(=O)[Se]CCC#N)c(C)n2C(=O)c1ccc(Cl)cc1", "active"],
  ["O=C(NNc1nc2cc(F)ccc2n2c(CN3CCCC3)ccc12)c1cnccn1", "inactive"],
  ["CC(C)(C)n1cc(-c2ccnc(NCCCNS(=O)(=O)c3cccc(F)c3)n2)c(-c2ccc(Cl)c(O)c2)n1", "inactive"],
  ["Cc1nn(-c2ccccc2)c2ncnc(N/N=C/c3ccccc3O)c12", "inactive"]
]}

---

Tested on: SK-OV-3 ovarian
Assay: NCI-60 one-dose screen, 48 h (100 = growth as untreated, 0 = no growth, -100 = all killed)
Conditions: 10 µM unless noted
About 83,000 compounds went through this panel and 20% of them were active in at least one assay; those are over-represented in the sample as a whole.
growth listing for selected compounds.

{"columns": ["Compound", "Readout Units", "growth"],
 "data": [
  ["Nc1nc(-c2cccc([N+](=O)[O-])c2)c(N=Nc2ccccc2)s1", "%", 62.3],
  ["O=C(Nc1nc2ccc([N+](=O)[O-])cc2s1)Nc1ccccc1Cl", "%", 22.8],
  ["CC(=O)C1=C(C)NC(NN)=NC1c1cccc(Cl)c1 (centres undefined)", "%", 102],
  ["C#Cc1ccc(C(=O)NCc2ccc(/C=C/C(=O)c3nccn3C)cc2)cc1", "%", 50.2],
  ["C#CCn1cccc1CNc1ccc(OC)cc1", "%", -63.5],
  ["CC(C)(C)c1ccc(C(=O)Nc2nc3ccc(O)cc3s2)cc1", "%", 78.6],
  ["O=C(NNc1nc2cc(F)ccc2n2c(CN3CC4CNCC4C3)ccc12)c1cnccn1 (centres undefined)", "%", 23.4],
  ["COc1cccc(O)c1/C=C(/C)c1ccc2c(OC)cccc2[o+]1", "%", 106],
  ["CCCn1cnc2c(c1=N)C(c1ccc(OC)cc1)c1sc3c(CC)cccc3c1O2 (centres undefined)", "%", 42.3],
  ["COc1ccc(C2CC(c3cccc(Nc4nc(Cl)nc5cc(OC)c(OC)cc45)c3)=Nc3c(N)nc(N)nc3N2)cc1 (centres undefined)", "%", 121],
  ["CCCn1cnc2c(c1=N)C(c1ccc(F)cc1)c1sc3c(CC)cccc3c1O2 (centres undefined)", "%", 40.3],
  ["O=C1[C@@H]2Cc3c([nH]c4ccccc34)[C@H](c3c(Cl)cccc3Cl)N2C(=O)CN1C1CCN(CC2CCCCC2)CC1", "%", 123],
  ["COc1ccc([C@@H]2c3[nH]c4ccccc4c3C[C@H]3C(=O)N(C4CCN(CC5CCCCC5)CC4)CC(=O)N23)c(OC)c1", "%", 86.2],
  ["O=C(CSc1nnc(-c2ccc3nc(-c4ccccc4)[nH]c3c2)o1)Nc1ccc(C(=O)/C=C/c2ccccc2)cc1", "%", 109],
  ["Cc1nn(-c2ccccc2)c2ncnc(N/N=C/c3ccccc3)c12", "%", 102],
  ["NC(N)=Nc1ccc(Oc2cccc(Oc3ccc(Cl)c(C(F)(F)F)c3)c2)cn1", "%", 75.8],
  ["NC(N)=Nc1ccc(Oc2cccc(Nc3ccc(Cl)cc3)c2)cn1", "%", 53.2],
  ["C=C(C=O)[C@@H]1CC[C@]2(COC(C)=O)CC[C@]3(C)C(CC[C@@H]4[C@@]5(C)CC[C@H](OC(C)=O)C(C)(C)[C@@H]5CC[C@]43C)[C@@H]12 (some centres undefined)", "%", 50.3],
  ["C=CC(=O)N1CCC=C(c2cc3c(N[C@H](C)c4ccccc4)ncnc3[nH]2)C1", "%", -6.72]
]}

---

growth listing for selected compounds.
System: SF-268 CNS
Assay: NCI-60 one-dose screen, 48 h (100 = growth as untreated, 0 = no growth, -100 = all killed)
Details: 10 µM unless noted
This is part of a sample that, as a whole, favours compounds with a hit. Of some 83,000 tested, about 20% had one in any assay.
Value Type: growth (%)

{"columns": ["Compound", "Measured Result"],
 "data": [
  ["COc1ccc(-n2c(/C=C3\\C(=O)Nc4ccccc43)ccc2CO)cc1", 99.2],
  ["C=CCn1c(-c2nc3ccc(C(=C(C#N)C#N)c4ccccc4)cc3[nH]2)cc2cc(Br)ccc21", 62.9],
  ["O=C(CSc1nnc(-c2ccc3nc(-c4ccccc4)[nH]c3c2)o1)Nc1ccc(C(=O)/C=C/c2ccccc2)cc1", 109],
  ["Cc1ccc(S(=O)(=O)NCCNc2nc(Nc3ccc(N4CCN(C)CC4)cc3)nc3ccsc23)cc1", 74.9],
  ["CC1(C)CC[C@]23CC[C@]4(C)[C@H](CC[C@@H]5[C@@]6(C)CCCN(CO)C(C)(C)[C@@H]6CC[C@]54C)[C@H]2[C@H]1OC3", 97.5],
  ["Cc1cc(C)c(N2C(=O)CC(Nc3ccc(Cl)cc3Cl)C2=O)c(C)c1 (centres undefined)", 106],
  ["O=C(NNc1nc2cc(F)ccc2n2cccc12)c1ccncn1", 19.6],
  ["Nc1ncc(-c2ccc(NS(=O)(=O)c3ccc(Cl)c(Cl)c3)cc2)[nH]1", 75.1],
  ["CC(=O)c1nnn(-c2c(C(=O)n3nc(C)cc3C)sc(=S)n2-c2ccccc2)c1C", 106]
]}

---

growth listing for selected compounds.
Tested on: DU-145 prostate
Assay: NCI-60 one-dose screen, 48 h (100 = growth as untreated, 0 = no growth, -100 = all killed)
Details: 10 µM unless noted
The panel holds about 83,000 compounds, 20% with a hit somewhere; the sample as a whole holds those more often.

{"columns": ["Compound", "growth (%)"],
 "data": [
  ["CN1CCN(Cc2ccc(NC(=O)c3cncc(C#Cc4cnc5ccc(OCC6(C)COC6)nn45)c3)cc2C(F)(F)F)CC1", -85.3],
  ["FC(F)(F)c1cc(Nc2cccc(Oc3ccc(NC4=NCCN4)nc3)c2)ccc1Cl", -19.3],
  ["COc1cc(OC)c(S(N)(=O)=O)cc1C(=O)/C=C/c1ccc(Cl)cc1", 5.02],
  ["CC(=O)C1=C(C)NC(NN)=NC1c1cccc(Cl)c1 (stereo not given)", 114],
  ["NS(=O)(=O)c1ccc(Nc2nc(N/N=C/c3ccc(Cl)cc3)nc(Nc3ccccc3)n2)cc1", 72.7]
]}

---

Test system: CAKI-1 renal
Assay: NCI-60 one-dose screen, 48 h (100 = growth as untreated, 0 = no growth, -100 = all killed)
Conditions: 10 µM unless noted
Description: Growth inhibition of the CAKI-1 human tumor cell line is measured as a screen for anti-cancer activity. Cells are grown in 96 well plates and exposed to the test compound for 48 hours. Compounds are tested at a single concentration, which is 10^-5 M for most compounds. The reported endpoint is percent growth (GI% or GIPRCNT), where numbers from 0 - 100% represent growth inhibition, and numbers from -100% - 0 represent cell death. For example, a value of 40 represents 60% growth inhibition. […]
About 83,000 compounds went through this panel and 20% of them were active in at least one assay; those are over-represented in the sample as a whole.
growth listing for selected compounds.
Value Type: growth (%)

{"columns": ["Compound", "Value Type", "Measured Result"],
 "data": [
  ["Cc1ccc(C2=Nn3c(nnc3-c3ccccc3)SC2)cc1", "growth", 34.4],
  ["CC(C)(C)c1ccc(C(=O)Nc2nc3ccc(O)cc3s2)cc1", "growth", 15.1],
  ["N#Cc1c(NC(=O)c2cccc(C(F)(F)F)c2F)sc2c1CCC(=O)C2", "growth", -83.5],
  ["COc1ccccc1C(=O)Nc1cccc2c1C(=O)C(=O)C=C2", "growth", 76.4],
  ["CCNC(=O)N1CCc2cc(OC)c(OCCc3ccc(OC)nc3)cc2C1c1ccc(OC)cc1C (stereo not given)", "growth", 33.7],
  ["NS(=O)(=O)c1ccc(Nc2cc(-c3ccccc3)nc(SCC(=O)c3ccccc3)n2)cc1", "growth", 90],
  ["CCN(CC)c1ccc(NC2=C(Cl)C(=O)c3nc(C)ccc3C2=O)cc1", "growth", 51.7],
  ["CCCCCc1ccc(S(=O)(=O)Nc2cc(-c3csc(NC(=O)CN4CCN(C)CC4)n3)ccc2OC)cc1", "growth", -15.5],
  ["c1cc(-c2nc3ccc4[nH]ncc4c3c3c2CCCC3)[nH]n1", "growth", 27.6],
  ["Nc1nc(-c2cccc([N+](=O)[O-])c2)c(N=Nc2ccccc2)s1", "growth", 39.3]
]}

Source of measurements: PubChem BioAssay (NCI)
